# Tested On: T1, PUF4 RNA-binding domain (Saccharomyces cerevisiae, UniProt P25339 537-888)
# T1 sequence: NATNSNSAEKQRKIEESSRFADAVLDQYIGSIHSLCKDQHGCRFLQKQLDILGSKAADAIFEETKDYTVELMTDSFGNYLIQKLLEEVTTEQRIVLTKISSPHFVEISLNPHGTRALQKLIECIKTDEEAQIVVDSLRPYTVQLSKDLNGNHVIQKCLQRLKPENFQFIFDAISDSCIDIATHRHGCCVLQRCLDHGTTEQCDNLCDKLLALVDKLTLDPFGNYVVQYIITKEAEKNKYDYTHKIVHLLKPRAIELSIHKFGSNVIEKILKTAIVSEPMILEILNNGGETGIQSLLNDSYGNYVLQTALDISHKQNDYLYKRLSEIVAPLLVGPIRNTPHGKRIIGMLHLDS
# Protocol Summary: Mg; RNA-MaP; 20 mM Na-HEPES pH 7.4, 30 mM KOAc, 0.75 mM MgCl2, 0.1% Tween-20, 5% glycerol, 0.1 mg/mL BSA, 2 mM DTT; 25 C; 0.0125-409.6 nM protein
# Run Conditions: tags: N-His6-TEV cleaved; C-SNAP kept, Cy3B-labelled; label: tethered on chip by stalled RNA polymerase
pKd: −log10 of the molar value.
Listed binders paired with reported pKd
Observed Property: pKd

[[record]]
binder = "UCUCUUAUACACUAUACUUCUCUU (ssRNA) [Id_ii_S1_P3E.4_K3.3_C3.2_[C-2A]_H3.3_A3.1_F3.1_T3.2_[T9C]_[A10T]]"
relation_qualifier = "="
result_value = 7.44

[[record]]
binder = "Ic_S2_P4E.1_K4.1_C4.1_H4.1_A4.1_[A6G]_[T7G]_F4.1_[T8C]_[A9G]_T4.1 (ssRNA) RNA: UUUGAUUAAUAUGAUAUCGUUCUUUCUUGUAUGGCGUUCUUUCUCGAUAUCAUAUUAAUCUUU"
relation_qualifier = "="
result_value = 5.78

[[record]]
binder = "ACAAACUCACACUAUAGCACAAAC (ssRNA) [Id_ii_S3_P3E.4_K3.3_C3.2_[C-2T]_[T-1C]_H3.3_A3.1_F3.1_T3.2_[T9G]_[A10C]]"
relation_qualifier = "<"
result_value = 5.64

[[record]]
binder = "Ib_S4_P5E.1_K5.1_C5.1_H5.1_[T1A]_[A4G]_A5.1_F5.1_T5.1 (ssRNA) RNA: UUUGACAACUGAUCGUUCUUUCUAGUGUUAUUAUUCUUUCUCGAUCAGUUGUCUUU"
relation_qualifier = "="
result_value = 5.90

[[record]]
binder = "Ic_S2_P5E.1_K5.1_C5.1_H5.1_A5.1_[T5G]_[A7G]_F5.1_[T8G]_[T9C]_[A10C]_T5.1 (ssRNA) RNA: UUUGAUUAAUAUGAUAUCGUUCUUUCUUGUAGUGGCCUUCUUUCUCGAUAUCAUAUUAAUCUUU"
relation_qualifier = "<"
result_value = 5.64

[[record]]
binder = "UCUCUUUAUAUUGUUAUCUCUU (ssRNA) [Ib_S1_P5E.1_K5.1_C5.1_H5.1_[G2A]_A5.1_[A7G]_F5.1_T5.1]"
relation_qualifier = "="
result_value = 6.07


Hey, just so you know, these numbers are from paper PMC9352680.
